Test System: TRKA (Homo sapiens (Human))
Sequence (P04629 441-796): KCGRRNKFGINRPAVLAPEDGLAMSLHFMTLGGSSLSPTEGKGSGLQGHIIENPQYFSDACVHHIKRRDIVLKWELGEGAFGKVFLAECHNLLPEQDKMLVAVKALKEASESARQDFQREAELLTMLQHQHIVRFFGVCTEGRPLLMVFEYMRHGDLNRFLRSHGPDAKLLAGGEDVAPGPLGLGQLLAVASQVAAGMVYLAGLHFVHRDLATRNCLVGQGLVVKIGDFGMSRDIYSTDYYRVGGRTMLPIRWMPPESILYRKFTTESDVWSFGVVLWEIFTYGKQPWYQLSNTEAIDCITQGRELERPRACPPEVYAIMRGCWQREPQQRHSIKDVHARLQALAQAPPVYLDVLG
Protocol Text: Isolated TRK enzyme assay (HTRF KinEASE-TK), TRKA
Assay type: biochemical
Condition Set: read-out: Trka enzyme (IC50)
Observable: IC50 (nM)

> print(dat)
                                   molecule   u  experimental.result
1  Cn1cc(C(=O)c2cncc(NC(=O)Cc3ccc(F)cc3F)c2)c2cncnc21  nM                  873
2  Cc1ccc2ccc(CC(=O)Nc3cncc(C(=O)c4cn(C)c5ncncc45)c3)cc2n1  nM                 3100
3  Cn1cc(C(=O)c2cncc(NC(=O)Cc3ccc(C(F)(F)F)c(F)c3)c2)c2cncnc21  nM                  210
4  CC(C)(CO)n1cc(C(=O)c2cncc(NC(=O)Cn3cc(C4CC4)cn3)c2)c2cnc(N)nc21  nM                  296
5  Cc1[nH]c2c(F)cccc2c1CC(=O)Nc1cncc(C(=O)c2cn(C(C)C)c3ncncc23)c1  nM                 65.1

* * *

Property: IC50; scope: individual compounds
Test System: TRKB (Homo sapiens (Human))
Sequence (Q16620 32-822 limits assumed): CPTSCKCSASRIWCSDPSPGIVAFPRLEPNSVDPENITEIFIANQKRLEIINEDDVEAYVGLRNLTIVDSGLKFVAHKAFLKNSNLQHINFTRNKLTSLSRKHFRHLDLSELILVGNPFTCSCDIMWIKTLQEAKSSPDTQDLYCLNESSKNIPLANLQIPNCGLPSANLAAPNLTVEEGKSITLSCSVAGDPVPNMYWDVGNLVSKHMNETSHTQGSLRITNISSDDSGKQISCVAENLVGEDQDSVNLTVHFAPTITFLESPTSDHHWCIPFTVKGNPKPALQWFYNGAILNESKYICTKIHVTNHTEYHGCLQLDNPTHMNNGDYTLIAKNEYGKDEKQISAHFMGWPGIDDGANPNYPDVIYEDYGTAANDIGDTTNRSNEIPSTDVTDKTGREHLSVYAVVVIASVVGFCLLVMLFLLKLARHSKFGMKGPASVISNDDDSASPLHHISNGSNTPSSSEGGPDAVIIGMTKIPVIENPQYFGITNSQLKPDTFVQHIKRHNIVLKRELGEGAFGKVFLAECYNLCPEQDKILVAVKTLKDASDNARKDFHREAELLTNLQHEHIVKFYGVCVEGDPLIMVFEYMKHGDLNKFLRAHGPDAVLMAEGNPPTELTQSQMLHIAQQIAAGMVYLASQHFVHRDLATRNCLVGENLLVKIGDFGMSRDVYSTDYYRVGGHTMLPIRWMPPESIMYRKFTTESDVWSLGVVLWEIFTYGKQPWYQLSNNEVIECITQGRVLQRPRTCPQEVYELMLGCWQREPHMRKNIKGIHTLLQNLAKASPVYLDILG
Protocol Text: biochemical
Condition Set: TrkB enzyme potency
Observable: IC50 (nM)

> print(dat)
                                   molecule  experimental.result
1  CC(C)(C)n1cc(C(=O)c2cncc(NC(=O)Cn3cc(C(F)(F)F)nn3)c2)c2cncnc21                  113
2  CC(C)(CO)n1cc(C(=O)c2cncc(NC(=O)Cc3ccc(Cl)cc3)c2)c2cncnc21                   75
3  CC(C)(CO)n1cc(C(=O)c2cncc(NC(=O)Cn3ccc(C(F)(F)F)n3)c2)c2cnc(N)nc21                  103
4  CC(C)(CO)n1cc(C(=O)c2cncc(NC(=O)Cc3ccc(Cl)cn3)c2)c2cncnc21                   68
5  CC(C)(CO)n1cc(C(=O)c2cncc(NC(=O)Cn3cc(C4CC4)nn3)c2)c2cnc(N)nc21                  962

* * *

Test System: TRKA (Homo sapiens (Human))
Protocol Text: Isolated TRK enzyme assay (HTRF KinEASE-TK), TRKA
Assay type: biochemical
Condition Set: read-out: Trka enzyme (IC50)
So basically: is IC50 under 300 nM? Then criterion met. Not under? Then criterion not met.

> print(dat)
                                    compound              label
 1  Cc1nc(C)n(CC(=O)Nc2cncc(C(=O)c3cn(C(C)C)c4ncncc34)c2)n1  criterion not met
 2  CC(CO)n1cc(C(=O)c2cncc(NC(=O)Cc3ccc(C#N)cc3)c2)c2cnc(N)nc21 (single isomer, unassigned) [Example 214]      criterion met
 3  CC(C)n1cc(C(=O)c2cncc(NC(=O)Cc3ccc4c(c3)CCO4)c2)c2cncnc21      criterion met
 4  CC(C)(C)n1cc(C(=O)c2cncc(NC(=O)Cc3nc4ccccc4[nH]3)c2)c2cnc(N)nc21      criterion met
 5  CC(CO)(CO)n1cc(C(=O)c2cncc(NC(=O)Cn3ccc(C(F)(F)F)n3)c2)c2cncnc21      criterion met
 6  CC(C)c1ccnn1CC(=O)Nc1cncc(C(=O)c2cn(C(C)C)c3ncncc23)c1  criterion not met
 7  CC(C)n1cc(C(=O)c2cncc(NC(=O)c3nccc4[nH]ccc34)c2)c2cncnc21  criterion not met
 8  CC(C)n1cc(C(=O)c2cncc(N(C)C(=O)Cc3ccc(C#N)cc3)c2)c2cncnc21  criterion not met
 9  CC(C)n1cc(C(=O)c2cncc(NC(=O)c3c[nH]c4cnccc34)c2)c2cncnc21  criterion not met
10  CC1(n2cc(C(=O)c3cncc(NC(=O)c4cccc(C(F)(F)F)c4)c3)c3cncnc32)COC1      criterion met
11  CC(C)n1cc(C(=O)c2c[nH]c(=O)c(NC(=O)Cc3ccc4cccnc4c3)c2)c2cncnc21  criterion not met
12  CC(C)n1cc(C(=O)c2cncc(NC(=O)c3ccn4ccnc4c3)c2)c2cncnc21  criterion not met
